Data origin: ChEMBL document CHEMBL4425091

Test system: Caco-2
TEST_METHOD_NOTES: Cytotoxicity against human Caco2 cells assessed as reduction in cell viability by MTT assay
Format: functional, cell-based
Counter-ions that a name gives are not always drawn.
Checkbox rule: IC50 lower than 3 µM = YES; IC50 not lower than 3 µM = NO.

{"columns": ["MOLECULE", "ASSIGNED_LABEL"],
 "data": [
  ["CO/C1=C\\C(C)=C\\[C@@H](C)[C@@H](O)[C@@H](C)C/C(C)=C/C=C/[C@H](OC)[C@@H]([C@@H](C)[C@@H](O)[C@H](C)[C@@]2(O)C[C@@H](OC)[C@H](C)[C@@H](C(C)C)O2)OC1=O [BAFILOMYCIN G]", "NO"],
  ["C[C@H]1CC[C@@H](O)[C@@]2(C)CCCC[C@]12O", "NO"],
  ["CO/C1=C\\C(C)=C\\[C@@H](C)[C@@H](O)[C@@H](C)C/C(C)=C/C=C/[C@H](OC)[C@@H]([C@@H](C)[C@@H](O)[C@H](C)[C@@]2(O)C[C@@H](OC(=O)/C=C/C(N)=O)[C@H](C)[C@@H](C(C)C)O2)OC1=O", "YES"],
  ["C[C@H]1CC[C@@H](O)[C@@]2(C)C[C@H](O)CC[C@]12O", "NO"],
  ["CO/C1=C\\C(C)=C\\[C@@H](C)[C@@H](O)[C@@H](C)C/C(C)=C/C=C/[C@H](OC)[C@@H]([C@@H](C)[C@@H](O)[C@H](C)[C@@]2(OC)C[C@@H](O)[C@H](C)[C@@H](C(C)C)O2)OC1=O", "NO"],
  ["CO/C1=C\\C(C)=C\\[C@@H](C)[C@@H](O)[C@@H](C)C/C(C)=C/C=C/[C@H](OC)[C@@H]([C@@H](C)[C@@H](O)[C@H](C)[C@@]2(OC)C[C@@H](OC(=O)/C=C/C(N)=O)[C@H](C)[C@@H](C(C)C)O2)OC1=O", "YES"],
  ["CO/C1=C\\C(C)=C\\[C@@H](C)[C@@H](O)[C@@H](C)C/C(C)=C/C=C/[C@H](OC)[C@@H]([C@@H](C)[C@@H](O)[C@H](C)[C@@]2(O)CC[C@H](C)[C@@H](C(C)C)O2)OC1=O", "NO"],
  ["COc1cccc2c1C(=O)c1c(O)c3c(c(O)c1C2=O)C[C@@](O)(C(=O)CO)C[C@@H]3O[C@H]1C[C@H](N)[C@H](O)[C@H](C)O1 [DOXORUBICIN HYDROCHLORIDE]", "YES"]
]}

----------
Tested on: Caco-2
TEST_METHOD_NOTES: Cytotoxicity against human Caco2 cells assessed as reduction in cell viability by MTT assay
Assay type: functional, cell-based
pIC50: −log10 of the molar value.
MEASURED_METRIC: pIC50

{"columns": ["COMPOUND", "COMPARISON_SIGN", "REPORTED_VALUE"],
 "data": [
  ["CO/C1=C\\C(C)=C\\[C@@H](C)[C@@H](O)[C@@H](C)C/C(C)=C/C=C/[C@H](OC)[C@@H]([C@@H](C)[C@@H](O)[C@H](C)[C@@]2(O)C[C@@H](O)[C@H](C)[C@@H](C(C)C)O2)OC1=O [BAFILOMYCIN A1]", "=", 5.26],
  ["C[C@H]1[C@@H](O)CC[C@@]2(C)CCCC[C@]12O", "<", 4.00],
  ["CO/C1=C\\C(C)=C\\[C@@H](C)[C@@H](O)[C@@H](C)C/C(C)=C/C=C/[C@H](OC)[C@@H]([C@@H](C)[C@@H](O)[C@H](C)[C@@]2(OC)CC[C@H](C)[C@@H](C(C)C)O2)OC1=O", "<", 4.00],
  ["CO/C1=C\\C(C)=C\\[C@@H](C)[C@@H](O)[C@@H](C)C/C(C)=C/C=C/[C@H](OC)[C@@H]([C@@H](C)[C@@H](O)[C@H](C)[C@@]2(O)C[C@@H](OC(=O)/C=C/C(=O)O)[C@H](C)[C@@H](C(C)C)O2)OC1=O", "=", 5.72],
  ["CO/C1=C/C(C)=C/[C@@H](C)[C@@H](O)[C@@H](C)C/C(C)=C/C=C/[C@H](OC)C([C@@H](C)[C@@H](O)[C@H](C)C(=O)/C=C/[C@H](C)[C@H](O)C(C)C)OC1=O (stereo not given in full)", "=", 4.84]
]}
